Each entry below lists one item and its recorded MIC value.
System: Staphylococcus aureus 209P
Assay: Minimum inhibitory concentration, serial dilution method, Brain Heart Infusion broth
Type: cell-based
Details: Staphylococcus aureus 209P; 24 hours, 37° C; read-out: Minimum Inhibitory Concentration
property-measured: MIC (µg/mL)

>>> reported_measurement("CCC(=O)OC1C=CC=CCC(C)OC(=O)CC(OC(=O)CC)C(OC)C(OC2OC(C)C(OC3CC(C)(OC(=O)CC)C(OC(=O)CC)C(C)O3)C(N(C)C)C2O)C(CC=O)CC1C (centres unmarked)")
0.78
>>> reported_measurement("CCC(=O)OC1C=CC=CCC(C)OC(=O)CC(OC(=O)CC)C(OC)C(OC2OC(C)C(OC3CC(C)(OC(=O)CC)C(OC(C)=O)C(C)O3)C(N(C)C)C2O)C(CC=O)CC1C (centres unmarked)")
1.56
>>> reported_measurement("CCC(=O)OC1CC(=O)OC(C)CC=CC=CC(OC(C)=O)C(C)CC(CC=O)C(OC2OC(C)C(OC3CC(C)(OC(=O)CC)C(OC(=O)CC)C(C)O3)C(N(C)C)C2O)C1OC (centres unmarked)")
1.56
>>> reported_measurement("CCC(=O)OC1CC(=O)OC(C)CC=CC=CC(OC(C)=O)C(C)CC(CC=O)C(OC2OC(C)C(OC3CC(C)(OC(=O)CC)C(OC(C)=O)C(C)O3)C(N(C)C)C2O)C1OC (centres unmarked)")
1.56
>>> reported_measurement("CCC(=O)OC1CC(=O)OC(C)CC=CC=CC(OC(C)=O)C(C)CC(CC=O)C(OC2OC(C)C(OC3CC(C)(OC(C)=O)C(OC(=O)CC)C(C)O3)C(N(C)C)C2O)C1OC (centres unmarked)")
1.56
